- Tested on: UACC-257
- experiment: NCI tumour cell line growth inhibition, 48 h
Activity calls are given as the source filed them. Cut-off read from the data, not from the text of the source: active = GI50 up to about 1.1 µM and inactive = higher.
Quick reference for GI50 among some compounds

Here's what some known entries look like.
| compound | system_under_test | GI50 |
| --- | --- | --- |
| CSc1nc(Cl)c2c(n1)Sc1ncnn1C2O (stereo not given) | UACC-257 | 19.5 µM (inactive) |
| O=C1NCN(c2ccccc2)C12CCN(CC1COc3ccccc3O1)CC2 (stereo not given) | UACC-257 | 36.6 µM (inactive) |
| CC(C)(C)c1cc(C2COC(=O)COCC(=O)OCCOCCOCCO2)cc(C(C)(C)C)c1O (stereo not given) | UACC-257 | > 61.7 µM (inactive) |
| C[C@@]1(CCCCCCCCCCc2ccccc2)C[C@@]2(C)OC(=O)C[C@H]2OO1 | UACC-257 | 2.12 µM (inactive) |
| CN(C)CCCNC(=O)N/N=C/c1ccccn1 | UACC-257 | 9.42 µM (inactive) |
| CCCCNC(=S)N/C=C1\C(=O)Nc2ccccc2C1=O | UACC-257 | > 10 µM (inactive) |
| COc1ccc(NC(=O)CC(=O)n2nc(-c3ccccc3)c(/N=N/c3ccccc3C)c2-c2ccccc2)cc1 | UACC-257 | 64.1 µM (inactive) |
| Cc1ccc(/N=N/c2ccc(N)cc2C)c(S(N)(=O)=O)c1 | UACC-257 | 45.2 µM (inactive) |

Input line: Param item = COc1cc(C2C(Cl)C(=O)N2n2cnc3ccccc3c2=O)ccc1O (stereo not given) ; retrieve measured GI50.
Output line: 25.4 µM (inactive)

Input line: Consider the compound shown here: `O=C(c1ccccc1)n1c2ccc(Br)cc2c2nc3ccccc3nc21` What is its recorded GI50?
Output line: > 100 µM (inactive)
